For each of the compounds below, state its MBC.
# System: Staphylococcus epidermidis
# EXPERIMENTAL_DETAILS: Antimicrobial activity against Staphylococcus epidermidis ATCC 12228 using sub-cultures from MIC method grown subsequently on Mueller-Hinton agar plates at 37 degC for 24 hrs
# Format: functional
# CONDITION_INFO: ATCC 12228, 24 h

Recorded MBC (compound COc1ccc(C2SCC(=O)N2NC(=O)c2cc(Br)c(Br)n2C)cc1 (centres undefined) ): 3.12 µg/mL

Recorded MBC (compound Cn1c(C(=O)NN2C(=O)CCSC2c2ccccc2)cc(Br)c1Br (centres undefined) ): 12.5 µg/mL

Recorded MBC (compound Cn1c(C(=O)NN2C(=O)CCSC2c2ccc([N+](=O)[O-])cc2)cc(Br)c1Br (centres undefined) ): 12.5 µg/mL

Recorded MBC (compound Cn1c(C(=O)NN2C(=O)CSC2c2ccc([N+](=O)[O-])cc2)cc(Br)c1Br (centres undefined) ): 6.25 µg/mL

Recorded MBC (compound COc1ccc(C2SCC(=O)N2NC(=O)c2cc(Br)c(Br)n2C)cc1O (centres undefined) ): 6.25 µg/mL

Recorded MBC (compound Cn1c(C(=O)NN2C(=O)CSC2c2cc(O)ccc2O)cc(Br)c1Br (centres undefined) ): 3.12 µg/mL

Recorded MBC (compound COc1ccc(C2SCCC(=O)N2NC(=O)c2cc(Br)c(Br)n2C)c(O)c1 (centres undefined) ): 12.5 µg/mL

Recorded MBC (compound Cn1c(C(=O)NN2C(=O)CSC2C/C=C/c2ccccc2)cc(Br)c1Br (centres undefined) ): 12.5 µg/mL

Recorded MBC (compound COc1ccc(C2SCCC(=O)N2NC(=O)c2cc(Br)c(Br)n2C)cc1 (centres undefined) ): 12.5 µg/mL

Recorded MBC (compound Cn1c(C(=O)NN2C(=O)CSC2c2ccc(F)cc2)cc(Br)c1Br (centres undefined) ): 3.12 µg/mL

Recorded MBC (compound CN[C@H](CC(C)C)C(=O)N[C@H]1C(=O)N[C@@H](CC(N)=O)C(=O)N[C@H]2C(=O)N[C@H]3C(=O)N[C@H](C(=O)N[C@H](C(=O)O)c4cc(O)cc(O)c4-c4cc3ccc4O)[C@H](O)c3ccc(c(Cl)c3)Oc3cc2cc(c3O[C@@H]2O[C@H](CO)[C@@H](O)[C@H](O)[C@H]2O[C@H]2C[C@](C)(N)[C@H](O)[C@H](C)O2)Oc2ccc(cc2Cl)[C@H]1O ): 3.12 µg/mL

Recorded MBC (compound Cn1c(C(=O)NN2C(=O)CCSC2c2ccc(Cl)cc2)cc(Br)c1Br (centres undefined) ): 12.5 µg/mL

Recorded MBC (compound COc1ccc(C2SCCC(=O)N2NC(=O)c2cc(Br)c(Br)n2C)cc1O (centres undefined) ): 12.5 µg/mL

Recorded MBC (compound Cn1c(C(=O)NN2C(=O)CCSC2C/C=C/c2ccccc2)cc(Br)c1Br (centres undefined) ): 12.5 µg/mL

Recorded MBC (compound Cn1c(C(=O)NN2C(=O)CSC2c2ccccc2)cc(Br)c1Br (centres undefined) ): 6.25 µg/mL

Recorded MBC (compound Cn1c(C(=O)NN2C(=O)CSC2c2ccc(Cl)cc2)cc(Br)c1Br (centres undefined) ): 3.12 µg/mL

Recorded MBC (compound Cn1c(C(=O)NN2C(=O)CCSC2c2cc(O)ccc2O)cc(Br)c1Br (centres undefined) ): 12.5 µg/mL

Recorded MBC (compound Cn1c(C(=O)NN2C(=O)CCSC2c2ccc(F)cc2)cc(Br)c1Br (centres undefined) ): 12.5 µg/mL

Recorded MBC (compound COc1ccc(C2SCC(=O)N2NC(=O)c2cc(Br)c(Br)n2C)c(O)c1 (centres undefined) ): 3.12 µg/mL

Reference source: ChEMBL document CHEMBL2203132
